System: SW480
Assay: TCF/Wnt firefly luciferase reporter signal relative to plate median (fraction of plate median); higher = higher Wnt reporter signal
Conditions: 5 µM; treatment time 24 h; reporter: 7TFP
Decision: TCF/Wnt firefly luciferase reporter signal compared against 1; not below it gives MET, below it gives NOT MET.

Below are worked cases with known answers.
OC(CCN1CCCCC1)(c1ccccc1)C1CC2C=CC1C2 (configuration not stated) ... NOT MET
CC1(O)CC2C(CC1O)C2(C)C (configuration not stated) ... NOT MET
COc1cc(-c2coc3cc(OC)c(OC)c(OC)c3c2=O)cc(OC)c1OC ... MET
Cc1cnc(NC(=O)C2=C(O)c3ccccc3S(=O)(=O)N2C)s1 ... MET
CC(C)CCC[C@@H](C)[C@H]1CC[C@H]2[C@@H]3CC=C4C[C@@H](O)CC[C@]4(C)[C@H]3CC[C@]12C ... MET
CCC(C)C(N)=O (configuration not stated) [2-Methylbutyramide] ... MET
C#CCCCCCCCCCCCC(O)CC(O)COC(C)=O (configuration not stated) ... NOT MET
C[C@H]1O[C@@H](O[C@H]2[C@@H](O)C[C@H](O[C@H]3[C@@H](O)C[C@H](O[C@H]4CC[C@@]5(C)[C@H](CC[C@@H]6[C@@H]5CC[C@]5(C)[C@@H](C7=CC(=O)OC7)CC[C@]65O)C4)O[C@@H]3C)O[C@@H]2C)C[C@H](O)[C@@H]1O ... NOT MET

In plain terms: is recorded TCF/Wnt firefly luciferase reporter signal at least 1 for `O=c1cc(-c2ccc(O)cc2)oc2cc(O[C@@H]3O[C@H](CO)[C@@H](O)[C@H](O)[C@H]3O[C@@H]3OC[C@](O)(CO)[C@H]3O)cc(O)c12` ?
MET

# check: TCF/Wnt firefly luciferase reporter signal of `C=CC1=C(C)/C(=C/c2[nH]c(Cc3[nH]c(/C=C4\NC(=O)C(C)=C4C=C)c(C)c3CCC(=O)O)c(CCC(=O)O)c2C)NC1=O` is greater than or equal to 1
NOT MET

====

System: DLD1
Assay: cell viability (CellTiter-Glo) relative to plate median (fraction of plate median); higher = more viable cells
Settings: 10 µM; treatment time 24 h; reporter: TCF4/Wnt
QUANTITY_MEASURED: cell viability
Lab note: write the figure by itself, no unit.

Quick check: cell viability of `Cn1c(=O)c(F)c(Nc2ccc(I)cc2F)c2c(=O)n(C[C@@H](O)CO)cnc21` ?
1.2

Param item = CN1CCN(c2ccc3nc(-c4c(N)c5c(F)cccc5[nH]c4=O)[nH]c3c2)CC1 [Dovitinib (TKI-258)] ; retrieve measured cell viability.
0.908

Suppose we examine the molecule `O=C(c1ccc(/C=C/c2n[nH]c3ccccc23)cc1)N1CCNCC1` ; what cell viability value has been reported?
1.14

State the recorded cell viability for this entry: `CC(C)NC[C@@H](C(=O)N1CCN(c2ncnc3c2[C@H](C)C[C@H]3O)CC1)c1ccc(Cl)cc1`
1.1

Given the molecule `CC(C)c1cnn2c(NCc3ccccc3)cc(NCCCCCCN)nc12` , what is its reported cell viability?
0.969

Fill in the blank: the reported cell viability of COc1cc(Nc2ncc(F)c(Nc3ccc4c(n3)NC(=O)C(C)(C)O4)n2)cc(OC)c1OC [R406(free base)] is ____.
0.99

Quick one: cell viability for `N#CC(=C(/N)Sc1ccccc1N)/C(C#N)=C(\N)Sc1ccccc1N` ?
1

For `Cc1cc2c(F)c(Oc3ncnn4cc(OC[C@@H](C)OC(=O)[C@H](C)N)c(C)c34)ccc2[nH]1` , what is its reported cell viability?
0.938

Value lookup for cell viability; key = `Cc1ccc(NC(=O)c2cccc(N(C)C)c2)cc1NC(=O)c1ccc(O)cc1`
1.09

====

Test system: SW480
Test: cell viability (CellTiter-Glo) relative to plate median (fraction of plate median); higher = more viable cells
Details: 5 µM; treatment time 24 h; reporter: 7TFP
Each record is given fulfilled if its reported cell viability is strictly below 1. Records at or above 1 are given not fulfilled.

Please review the entries below; each comes with its answer.
CN(C)CCCN1c2ccccc2Sc2ccccc21 ... fulfilled
CC(=O)NS(=O)(=O)c1ccc(NC(=O)c2ccccc2C(=O)O)cc1 ... fulfilled

Please check: cell viability for `Cn1cnc([N+](=O)[O-])c1Sc1ncnc2[nH]cnc12` , strictly under 1 or not?
not fulfilled

Report whether reported cell viability is lower than 1 (strictly) for O=C1C=C2CC3(O)COc4c(ccc(O)c4O)C3=C2C=C1O (stereo not given)
not fulfilled

====

System: DLD1
Assay: cell viability (CellTiter-Glo) relative to plate median (fraction of plate median); higher = more viable cells
Conditions: 5 µM; treatment time 24 h; reporter: 7TFP
QUANTITY_MEASURED: cell viability
Respond with the number and no other words.

Example results:
O=C1OC(c2ccc(O)cc2)(c2ccc(O)cc2)c2ccccc21 ... 1.01
CCC(C)C(=O)OC1[C@@H]2CC3=C4CC(=O)O[C@@H](c5ccoc5)[C@]4(C)CCC3[C@@](C)(C2=O)[C@@H](CC(=O)OC)C1(C)C (some centres undefined) ... 1.08
CN1CCCN=C1/C=C/c1cccs1 ... 0.984
CC(C)=CCc1cccc2c(C[C@@H]3NC(=O)[C@H](C)NC3=O)c[nH]c12 [Terezine D] ... 1.03
O=c1[nH]cc(F)c(=O)[nH]1 ... 1.03
CCCc1nn(C)c2c(=O)[nH]c(-c3cc(S(=O)(=O)N4CCN(C)CC4)ccc3OCC)nc12 ... 1
O=C(OCc1ccccc1)c1ccccc1 ... 1.03
C=C1CC[C@H](O)C/C1=C/C=C1\CCC[C@]2(C)[C@@H]([C@H](C)/C=C/[C@H](C)C(C)C)CC[C@@H]12 ... 0.982

Moving on to another compound below.
Would you mind telling me what cell viability value was observed for `CO[C@@H]1[C@@H](OC(N)=O)[C@@H](O)[C@H](Oc2ccc3c(O)c(NC(=O)c4ccc(O)c(CC=C(C)C)c4)c(=O)oc3c2C)OC1(C)C` ?
0.988

====

Below is a list of entries, each paired with its recorded cell viability value.
System: SW480
Assay: cell viability (CellTiter-Glo) relative to plate median (fraction of plate median); higher = more viable cells
Conditions: 5 µM; treatment time 24 h; reporter: 7TFP
Lab note: jot the number down without any unit.

Nc1nnc(-c2cccc(Cl)c2Cl)c(N)n1 ... 0.975

What does the data say about its cell viability? Entry: `N=c1ccn2c(n1)O[C@H]1[C@H](O)[C@@H](CO)O[C@H]12`
1.15

# input molecule: `CN(C(=O)C(Cl)Cl)c1ccc(OC(=O)c2ccco2)cc1` ; wanted: its cell viability
1.03

Any idea what cell viability was measured for C[C@@H]1CC(=O)c2c(ccc3c2C(=O)c2cccc(O)c2C3=O)C1 [Ochromycinone (Isoform B, compound ID 7489)] ?
0.991

What value of cell viability has been recorded for this entry: `N#Cc1ccc2c(c1)N(CCCN1CCC(O)CC1)c1ccccc1S2`
1.01

# cell viability lookup, item `CN1CCN(C2=Nc3ccccc3Oc3ccc(Cl)cc32)CC1`
0.927

Recorded cell viability for `C[C@H](CCC(=O)O)[C@H]1CC[C@H]2[C@@H]3[C@@H](O)C[C@@H]4C[C@H](O)CC[C@]4(C)[C@H]3CC[C@]12C` , please?
0.958

Can you share its cell viability? I mean this molecule: Cc1cc(C)cc(OCC2CNC(=O)O2)c1 (stereo not given)
0.975

Value lookup for cell viability; key = `N=C(N)NCCCCNC(=N)N`
0.965

Query: cell viability; subject: `C[C@H]1[C@H]2CC[C@H]3[C@@H]4CC=C5C[C@@H](N(C)C)CC[C@]5(C)[C@H]4CC[C@]23CN1C`
0.984

====

cell viability by entry:
System: DLD1
Assay: cell viability (CellTiter-Glo) relative to plate median (fraction of plate median); higher = more viable cells
Conditions: 10 µM; treatment time 24 h; reporter: 7TFP
Give the figure only, with no unit attached.

Here's what some known entries look like.
CS(=O)(=O)CCNCc1ccc(-c2ccc3ncnc(Nc4ccc(OCc5cccc(F)c5)c(Cl)c4)c3c2)o1 [Lapatinib Ditosylate (Tykerb)] ... 1.06
COC(=O)Nc1ccc(-c2nc(N3CCOCC3)c3cnn(C4CCN(Cc5cccnc5)CC4)c3n2)cc1 ... 0.796
C[C@@H]1CN(CC(=O)Nc2ccc3c(c2)Cc2cccc(-c4cc(=O)cc(N5CCOCC5)o4)c2S3)C[C@H](C)O1 ... 0.797
CC(C)(C)c1cnc(CSc2cnc(NC(=O)C3CCNCC3)s2)o1 ... 1.09

Then this compound:
Could you share which cell viability value was measured for S=C(NCc1ccc2c(c1)OCO2)N1CCN(c2ncnc3c2oc2ccccc23)CC1 [Amuvatinib (MP-470)] ?
0.997

====

System: DLD1
Experiment: cell viability (CellTiter-Glo) relative to plate median (fraction of plate median); higher = more viable cells
Settings: 5 µM; treatment time 24 h; reporter: 7TFP
Please respond with Met when measured cell viability is strictly beneath 0.9, and with Not met in all other cases.

# example entries with known answers
COc1ccc(-c2cc(C(F)F)nn2-c2ccc(S(N)(=O)=O)cc2)cc1F ... Met
Cc1cc(=O)oc2c(O)c(O)ccc12 ... Not met
COc1ccc2[nH]cc(CCNC(C)=O)c2c1 ... Not met
CCCCCCNC(=O)n1cc(F)c(=O)[nH]c1=O ... Not met

Answer whether the compound `C1CCN2C[C@@H]3C[C@@H](CN4CCCC[C@@H]34)[C@H]2C1` has cell viability strictly less than 0.9
Not met

Determine whether this compound shows cell viability lower than 0.9 (ties excluded): `NC[C@H]1O[C@H](O[C@H]2[C@H](O)[C@@H](O[C@H]3O[C@H](CO)[C@@H](O)[C@H](N)[C@H]3O)[C@H](N)C[C@@H]2N)[C@H](N)C[C@@H]1O`
Met
